tested on: Plasmodium falciparum; assay: Antimalarial activity against Plasmodium falciparum NF54; format: functional, organism-based
For each entry below, report its IC50 value.
Answers are plain numbers, in ng/mL.

O=C(O)CCC(=O)N1CCC2(CC1)OOC1(O2)C2CC3CC(C2)CC1C3 (stereo not given); 7.2
CC(C)N(C(=O)N1CCC2(CC1)OOC1(O2)C2CC3CC(C2)CC1C3)C(C)C (stereo not given); 6.6
CCS(=O)(=O)CCN1CCC2(CC1)OOC1(O2)C2CC3CC(C2)CC1C3 (stereo not given); 2.9
CN1CCN(C(=O)N2CCC3(CC2)OOC2(O3)C3CC4CC(C3)CC2C4)CC1 (stereo not given); 0.22

--- query ---
Find the recorded IC50 belonging to "COCC(=O)N1CC[C@]2(CC1)OO[C@]1(O2)C2CC3CC(C2)CC1C3" and report it. 0.2

====

tested on: Plasmodium falciparum; assay: Antimalarial activity against Plasmodium falciparum NF54; format: functional, organism-based
measurement-type: IC50 (ng/mL)
One number for each entry, in ng/mL.

Recorded results for 6 molecules are shown here.
CC(C)(C)NC(=O)N1CCC2(CC1)OOC1(O2)C2CC3CC(C2)CC1C3 (configuration not stated); 1.8
O=C(N1CCCC1)N1CCC2(CC1)OOC1(O2)C2CC3CC(C2)CC1C3 (configuration not stated); 6.7
O=S(=O)(Cc1ccccc1)N1CCC2(CC1)OOC1(O2)C2CC3CC(C2)CC1C3 (configuration not stated); 4.1
CC(=O)Nc1ccc(S(=O)(=O)N2CCC3(CC2)OOC2(O3)C3CC4CC(C3)CC2C4)cc1 (configuration not stated); 0.5
c1ccc(CN2CCC3(CC2)OOC2(O3)C3CC4CC(C3)CC2C4)cc1 (configuration not stated); 2.6
c1cc(CN2CCC3(CC2)OOC2(O3)C3CC4CC(C3)CC2C4)ccn1 (configuration not stated); 0.67

Please tell me: IC50 of O=C(O)c1ccccc1C(=O)N1CCC2(CC1)OOC1(O2)C2CC3CC(C2)CC1C3 (configuration not stated) , system Plasmodium falciparum? 13

====

tested on: Mus musculus; test: Survival of MORO mice (Mus musculus) infected with Plasmodium berghei at 10 mg/kg, subcutaneously after 30 day post-infection; assay type: functional; settings: route subcutaneous
Exercise: for every item that follows, state its recorded Activity.
Answers are plain numbers, in days.

Example results:
O=C(Nc1ccc(Cl)cc1)N1CCC2(CC1)OOC1(O2)C2CC3CC(C2)CC1C3 (stereo not given); 13.7
CC(C)(C)CC(=O)N1CCC2(CC1)OOC1(O2)C2CC3CC(C2)CC1C3 (stereo not given); 8.3
Cc1ccc(NC(=O)N2CCC3(CC2)OOC2(O3)C3CC4CC(C3)CC2C4)cc1 (stereo not given); 14.3

Dear colleague, could you send me Activity for each of the items below? Thanks.
1. O=C(Nc1ccccc1)N1CCC2(CC1)OOC1(O2)C2CC3CC(C2)CC1C3 (stereo not given)
2. CO[C@H]1O[C@@H]2O[C@@]3(C)CC[C@H]4[C@H](C)CC[C@@H]([C@H]1C)[C@@]24OO3
3. O=S(=O)(Cc1ccccc1)N1CCC2(CC1)OOC1(O2)C2CC3CC(C2)CC1C3 (stereo not given)

19.7
9.1
8

====

assay: Partition coefficient, logP of the compound; assay type: physicochemical; details: octanol/water
What logP was measured for each of the following?
Numbers only.

Required: logP, one value per molecule below.
1. CO[C@H]1O[C@@H]2O[C@@]3(C)CC[C@H]4[C@H](C)CC[C@@H]([C@H]1C)[C@@]24OO3
2. C1CCC2(CC1)OOC1(O2)C2CC3CC(C2)CC1C3 (configuration not stated)
3. O=C(c1ccccc1)N1CCC2(CC1)OOC1(O2)C2CC3CC(C2)CC1C3 (configuration not stated)
4. CC(=O)N1CCC2(CC1)OOC1(O2)C2CC3CC(C2)CC1C3 (configuration not stated)

1. 3.3
2. 6.1
3. 5.6
4. 3.8

Fill in logP for each of the 3 molecules listed.
1. O=S(=O)(c1ccccc1)N1CCC2(CC1)OOC1(O2)C2CC3CC(C2)CC1C3 (configuration not stated)
2. O=C(CO)N1CCC2(CC1)OOC1(O2)C2CC3CC(C2)CC1C3 (configuration not stated)
3. O=C(O)CCC(=O)N1CCC2(CC1)OOC1(O2)C2CC3CC(C2)CC1C3 (configuration not stated)

[5.5, 2.4, 2.3]

====

test system: Plasmodium falciparum; assay: Antimalarial activity against Plasmodium falciparum NF54; format: functional, organism-based
measurement-type: IC50 (ng/mL)
Give bare numbers, in ng/mL.

The examples below pair each entry with its known result.
O=C(CO)N1CCC2(CC1)OOC1(O2)C2CC3CC(C2)CC1C3 (stereo not given); 0.6
CS(=O)(=O)N1CCC2(CC1)OOC1(O2)C2CC3CC(C2)CC1C3 (stereo not given); 0.64
CCS(=O)(=O)N1CCC2(CC1)OOC1(O2)C2CC3CC(C2)CC1C3 (stereo not given); 0.81

Batch request: IC50 per item, same order as input.
1. Cc1ccc(NC(=O)N2CCC3(CC2)OOC2(O3)C3CC4CC(C3)CC2C4)cc1 (stereo not given)
2. CC(=O)N1CCC2(CC1)OOC1(O2)C2CC3CC(C2)CC1C3 (stereo not given)
3. CO[C@H]1O[C@@H]2O[C@@]3(C)CC[C@H]4[C@H](C)CC[C@@H]([C@H]1C)[C@@]24OO3
4. C1CCC2(CC1)OOC1(O2)C2CC3CC(C2)CC1C3 (stereo not given)
5. C1CC2(CCN1)OOC1(O2)C2CC3CC(C2)CC1C3.Cl (stereo not given)

2.3
0.93
1.2
1.4
0.34

Please look at the items below and tell me IC50 for each one, in order.
1. O=S(=O)(c1ccccc1)N1CCC2(CC1)OOC1(O2)C2CC3CC(C2)CC1C3 (stereo not given)
2. O=C(c1ccccc1)N1CCC2(CC1)OOC1(O2)C2CC3CC(C2)CC1C3 (stereo not given)

1.2
0.58

====

test system: Mus musculus; test: Survival of MORO mice (Mus musculus) infected with Plasmodium berghei at 10 mg/kg, subcutaneously after 30 day post-infection; type: functional; conditions: route subcutaneous
Give Activity for every item shown.
Answers are plain numbers, in days.

O=C(c1ccccc1)N1CCC2(CC1)OOC1(O2)C2CC3CC(C2)CC1C3 (centres undefined); 8.7
CC(=O)N1CCC2(CC1)OOC1(O2)C2CC3CC(C2)CC1C3 (centres undefined); 7.3
CS(=O)(=O)N1CCC2(CC1)OOC1(O2)C2CC3CC(C2)CC1C3 (centres undefined); 10.3
CCS(=O)(=O)N1CCC2(CC1)OOC1(O2)C2CC3CC(C2)CC1C3 (centres undefined); 9.3
O=C(O)c1ccccc1C(=O)N1CCC2(CC1)OOC1(O2)C2CC3CC(C2)CC1C3 (centres undefined); 6.3

Your task in this section: give Activity for each listed record.
1. CC(=O)Nc1ccc(S(=O)(=O)N2CCC3(CC2)OOC2(O3)C3CC4CC(C3)CC2C4)cc1 (centres undefined)
2. COCC(=O)N1CC[C@]2(CC1)OO[C@]1(O2)C2CC3CC(C2)CC1C3
3. O=C(N1CCCC1)N1CCC2(CC1)OOC1(O2)C2CC3CC(C2)CC1C3 (centres undefined)
4. NC(=O)N1CCC2(CC1)OOC1(O2)C2CC3CC(C2)CC1C3 (centres undefined)
5. CCS(=O)(=O)CCN1CCC2(CC1)OOC1(O2)C2CC3CC(C2)CC1C3 (centres undefined)
6. O=C(O)CCC(=O)N1CCC2(CC1)OOC1(O2)C2CC3CC(C2)CC1C3 (centres undefined)
7. CC(C)N(C(=O)N1CCC2(CC1)OOC1(O2)C2CC3CC(C2)CC1C3)C(C)C (centres undefined)
8. CN1CCN(C(=O)N2CCC3(CC2)OOC2(O3)C3CC4CC(C3)CC2C4)CC1 (centres undefined)

1. 12
2. 7.3
3. 9.7
4. 8.7
5. 8
6. 6.3
7. 20.3
8. 8.3

# batch size: 8; output Activity per entry
1. O=S(=O)(c1ccccc1)N1CCC2(CC1)OOC1(O2)C2CC3CC(C2)CC1C3 (centres undefined)
2. CN(C)C(=O)N1CCC2(CC1)OOC1(O2)C2CC3CC(C2)CC1C3 (centres undefined)
3. c1cc(CN2CCC3(CC2)OOC2(O3)C3CC4CC(C3)CC2C4)ccn1 (centres undefined)
4. c1ccc(CN2CCC3(CC2)OOC2(O3)C3CC4CC(C3)CC2C4)cc1 (centres undefined)
5. O=C(CO)N1CCC2(CC1)OOC1(O2)C2CC3CC(C2)CC1C3 (centres undefined)
6. C1CC2(CCN1)OOC1(O2)C2CC3CC(C2)CC1C3.Cl (centres undefined)
7. C1CCC2(CC1)OOC1(O2)C2CC3CC(C2)CC1C3 (centres undefined)
8. O=C(N1CCOCC1)N1CCC2(CC1)OOC1(O2)C2CC3CC(C2)CC1C3 (centres undefined)

[10.3, 7, 11, 10, 8, 7.7, 11.9, 9]

# batch size: 3; output Activity per entry
1. O=C(c1ccncc1)N1CCC2(CC1)OOC1(O2)C2CC3CC(C2)CC1C3 (centres undefined)
2. CC(C)(C)NC(=O)N1CCC2(CC1)OOC1(O2)C2CC3CC(C2)CC1C3 (centres undefined)
3. C[C@H]1[C@H](OC(=O)CCC(=O)O)O[C@@H]2O[C@@]3(C)CC[C@H]4[C@H](C)CC[C@@H]1[C@@]24OO3 [ARTESUNATE]

[7, 9.7, 6.8]
